assayTarget: Substance-K receptor (Homo sapiens)
Sequence (P21452 whole entry): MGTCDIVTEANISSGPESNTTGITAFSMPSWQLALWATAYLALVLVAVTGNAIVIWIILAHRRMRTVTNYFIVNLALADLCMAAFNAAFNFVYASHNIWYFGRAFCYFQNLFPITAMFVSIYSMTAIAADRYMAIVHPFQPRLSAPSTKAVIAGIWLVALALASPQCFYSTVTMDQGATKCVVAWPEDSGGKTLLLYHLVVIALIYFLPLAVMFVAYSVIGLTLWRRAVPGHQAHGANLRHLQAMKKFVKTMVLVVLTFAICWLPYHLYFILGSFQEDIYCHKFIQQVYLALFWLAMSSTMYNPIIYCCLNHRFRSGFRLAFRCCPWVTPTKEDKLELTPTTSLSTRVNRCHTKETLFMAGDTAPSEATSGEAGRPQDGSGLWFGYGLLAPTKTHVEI
assayName: Binding affinity for human tachykinin receptor 2 expressed in CHO cells using [125I]- NKA radioligand
Assay type: cell-based
Field: class. Source value: pIC50. Ranges: category 1: < 7; category 2: ≥ 7 and < 8; category 3: ≥ 8

molecule	classification
CN(CC(CCN1CCCC(n2c(O)nc3ccccc32)CC1)c1ccc(Cl)c(Cl)c1)C(=O)c1ccccc1 (centres undefined)	category 3
CN(CC(CCN1CCC(n2c(O)nc3ccccc32)C1)c1ccc(Cl)c(Cl)c1)C(=O)c1ccccc1 (centres undefined)	category 2
O=C(c1ccccc1)N1CCC(CCN2CC(N3CCOCC3)C2)(c2ccc(Cl)c(Cl)c2)C1 (centres undefined)	category 2
CN(CC(CCN1CCC(O)CC1)c1ccc(Cl)c(Cl)c1)C(=O)c1ccccc1 (centres undefined)	category 1
CN(CC(CCN1CCCCC1)c1ccc(Cl)c(Cl)c1)C(=O)c1ccccc1 (centres undefined)	category 1

// query Using the reported pIC50, which band applies to O=S(=O)(c1ccccc1)N1CCC(CCN2CC(N3CCOCC3)C2)(c2ccc(Cl)c(Cl)c2)C1 (centres undefined) ?
// result category 1

// query Same lookup for CN(CC(CCN1CCC(O)(c2ccccc2)CC1)c1ccc(Cl)c(Cl)c1)C(=O)c1ccccc1 (centres undefined) , please.
// result category 3

// query Same lookup for O=C(CC1CC1)N1CCC(CCN2CC(N3CCOCC3)C2)(c2ccc(Cl)c(Cl)c2)C1 (centres undefined) , please.
// result category 1

// query Same lookup for CN(CC(CCN1CC(N2CCOCC2)C1)c1ccc(Cl)c(Cl)c1)C(=O)c1ccccc1 (centres undefined) , please.
// result category 2

// query Same lookup for CN(CC(CCN1CCC(n2c(O)nc3ccccc32)CC1)c1ccc(Cl)c(Cl)c1)C(=O)c1ccccc1 (centres undefined) , please.
// result category 3

// query Same lookup for CN(CC(CCN1CCC(O)(c2ncc[nH]2)CC1)c1ccc(Cl)c(Cl)c1)C(=O)c1ccccc1 (centres undefined) , please.
// result category 1

====

Recorded pIC50 for the following compounds
assayTarget: UniProt:P21452
assayName: Binding affinity for human tachykinin receptor 2 expressed in CHO cells using [125I]- NKA radioligand
Assay type: cell-based
Answer as a number with no unit attached.

Past entries and their recorded results:
compound	pIC50
CN(CC(CCN1CCCC(n2c(=O)[nH]c3ccccc32)C1)c1ccc(Cl)c(Cl)c1)C(=O)c1ccccc1 (stereo not given)	7.1
O=C(c1ccccc1)N1CC(CCN2CC(N3CCOCC3)C2)(c2ccc(Cl)c(Cl)c2)C1	7.2
CN(CC(CCN1CCC(n2ccnc2)CC1)c1ccc(Cl)c(Cl)c1)C(=O)c1ccccc1 (stereo not given)	7.7

Query compound follows.
// query Entry CN(CC(CCN1CCC(c2nc3ccccc3[nH]2)CC1)c1ccc(Cl)c(Cl)c1)C(=O)c1ccccc1 (stereo not given) , system UniProt:P21452: what pIC50 was measured?
// result 7.3

Where do the numbers come from? From ChEMBL document CHEMBL1144946.
